Provenance of the data: patent US8268862B2

In this section, each of the compounds is paired with its reported Emax.
# measurement.target: SIRT1 (Homo sapiens, UniProt Q96EB6)
# assay.name: mass spectrometry based SIRT1 deacetylation assay (activation)
# Format: biochemical
# condition.details: 0.5 μM peptide substrate, 120 μM βNAD+, 10 nM SIRT1, 25 min at 25° C.; read-out: % FOLD ACT. (percent maximum fold activation of SIRT1)

>  <cpd.smiles>
O=C(Nc1ccccc1-c1nc2cc(CN3CCNCC3)cnc2s1)c1ccn(-c2ccccc2)n1

>  <value.relation.sign>
=

>  <Emax (%)>
304

$$$$
>  <cpd.smiles>
O=C(Nc1ccccc1-c1nc2cc(CN3CCOCC3)cnc2s1)c1cccc(-c2ccccc2)n1

>  <value.relation.sign>
>

>  <Emax (%)>
500

$$$$
>  <cpd.smiles>
COCCN1CCN(Cc2cnc3sc(-c4ccccc4NC(=O)c4ccnc(-c5ccccc5)c4)nc3c2)CC1

>  <value.relation.sign>
=

>  <Emax (%)>
389

$$$$
>  <cpd.smiles>
C[C@@H]1CN(Cc2cnc3sc(-c4ccccc4NC(=O)c4cccc(-c5ccncc5)c4)nc3c2)C[C@H](C)N1

>  <value.relation.sign>
=

>  <Emax (%)>
360

$$$$
>  <cpd.smiles>
O=C(Nc1ccccc1-c1nc2cc(CN3CC[C@@H](F)C3)cnc2s1)c1cccc(-c2ccccc2)c1

>  <value.relation.sign>
=

>  <Emax (%)>
203

$$$$
>  <cpd.smiles>
O=C(Nc1ccccc1-c1nc2cc(CN3CC[C@@H](O)C3)cnc2s1)c1ccc2ccccc2n1

>  <value.relation.sign>
=

>  <Emax (%)>
221

$$$$
>  <cpd.smiles>
O=C(Nc1ccccc1-c1nc2cc(CN3CCCC3)cnc2s1)c1cccc(-c2cccc(F)c2)n1

>  <value.relation.sign>
>

>  <Emax (%)>
500

$$$$

====

# measurement.target: SIRT1 (Homo sapiens, UniProt Q96EB6)
# Sequence (Q96EB6 1-747): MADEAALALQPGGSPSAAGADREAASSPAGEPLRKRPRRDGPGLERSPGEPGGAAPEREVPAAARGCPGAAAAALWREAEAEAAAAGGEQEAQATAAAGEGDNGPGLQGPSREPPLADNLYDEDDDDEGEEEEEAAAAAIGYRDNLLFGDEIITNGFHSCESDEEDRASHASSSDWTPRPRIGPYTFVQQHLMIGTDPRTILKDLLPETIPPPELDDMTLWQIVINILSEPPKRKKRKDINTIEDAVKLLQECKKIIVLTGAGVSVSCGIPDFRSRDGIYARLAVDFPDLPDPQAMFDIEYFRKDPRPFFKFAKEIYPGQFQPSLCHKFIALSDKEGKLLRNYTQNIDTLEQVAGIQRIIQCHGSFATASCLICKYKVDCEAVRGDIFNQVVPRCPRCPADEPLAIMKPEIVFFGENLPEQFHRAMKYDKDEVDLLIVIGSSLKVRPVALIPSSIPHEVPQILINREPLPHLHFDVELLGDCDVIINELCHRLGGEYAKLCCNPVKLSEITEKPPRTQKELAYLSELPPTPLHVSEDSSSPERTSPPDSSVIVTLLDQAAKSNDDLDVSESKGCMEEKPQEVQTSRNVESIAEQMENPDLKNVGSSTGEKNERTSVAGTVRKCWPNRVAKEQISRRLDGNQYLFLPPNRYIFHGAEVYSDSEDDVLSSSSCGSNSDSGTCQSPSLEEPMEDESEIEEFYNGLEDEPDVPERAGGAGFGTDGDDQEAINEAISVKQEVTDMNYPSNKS
# assay.name: mass spectrometry based SIRT1 deacetylation assay (activation)
# Assay type: biochemical
# condition.details: 0.5 μM peptide substrate, 120 μM βNAD+, 10 nM SIRT1, 25 min at 25° C.; NA = not active in the assay
// EC1.5 (concentration of test compound that results in 150% activation of SIRT1) lookup, one value per entry
measured.attribute: EC1.5 (concentration of test compound that results in 150% activation of SIRT1) (NM)

>  <cpd.smiles>
O=C(Nc1ccccc1-c1nc2cc(CN[C@H]3CCNC3)cnc2s1)c1ccc2ccccc2n1

>  <result.unit>
NM

>  <endpoint.value>
820

$$$$
>  <cpd.smiles>
O=C(Nc1ccccc1-c1nc2cc(CN3CCOCC3)cnc2s1)c1cn2cc(F)ccc2n1

>  <result.unit>
NM

>  <endpoint.value>
1310

$$$$
>  <cpd.smiles>
CC(C)NCc1cnc2sc(-c3ccccc3NC(=O)c3cccc(-c4ccccc4)c3)nc2c1

>  <result.unit>
NM

>  <endpoint.value>
722

$$$$
>  <cpd.smiles>
O=C(Nc1ccccc1-c1nc2cc(CN3CC[C@@H](F)C3)cnc2s1)c1cccc(-c2ccccn2)c1

>  <result.unit>
NM

>  <endpoint.value>
455

$$$$
>  <cpd.smiles>
COCCN1CCN(Cc2cnc3sc(-c4ccccc4NC(=O)c4cccc(-c5ccccc5)n4)nc3c2)CC1

>  <result.unit>
NM

>  <endpoint.value>
82

$$$$
>  <cpd.smiles>
Cc1nc(-c2cccnc2)sc1C(=O)Nc1ccccc1-c1nc2cc(CN3CCC(N)CC3)cnc2s1

>  <result.unit>
NM

>  <endpoint.value>
565

$$$$
>  <cpd.smiles>
O=C(Nc1ccccc1-c1nc2ccc(CN3CCNCC3)nc2s1)c1ccc2ccccc2n1

>  <result.unit>
NM

>  <endpoint.value>
687

$$$$
>  <cpd.smiles>
O=C(Nc1ccccc1-c1nc2cc(CN3CCNCC3)cnc2s1)c1ccc2ccccc2n1

>  <result.unit>
NM

>  <endpoint.value>
260

$$$$

====

# measurement.target: SIRT1 (Homo sapiens, UniProt Q96EB6)
# assay.name: mass spectrometry based SIRT1 deacetylation assay (activation)
# Assay type: biochemical
# condition.details: 0.5 μM peptide substrate, 120 μM βNAD+, 10 nM SIRT1, 25 min at 25° C.; NA = not active in the assay
# EC1.5 (concentration of test compound that results in 150% activation of SIRT1) per entry
measured.attribute: EC1.5 (concentration of test compound that results in 150% activation of SIRT1) (NM)

>  <cpd.smiles>
O=C(Nc1ccccc1-c1nc2cc(CN3CCOCC3)cnc2s1)c1cccc(-c2ccncc2)c1

>  <endpoint.value>
746

$$$$
>  <cpd.smiles>
COCCN1CCN(Cc2cnc3sc(-c4ccccc4NC(=O)c4cccc(-c5ccccn5)c4)nc3c2)CC1

>  <endpoint.value>
281

$$$$
>  <cpd.smiles>
COCCN1CCN(Cc2cnc3sc(-c4ccccc4NC(=O)c4cccc(-c5ccc(C(F)(F)F)cc5)n4)nc3c2)CC1

>  <endpoint.value>
448

$$$$
>  <cpd.smiles>
COCCN1CCN(Cc2cnc3sc(-c4ccccc4NC(=O)c4cc(-c5ccccc5)n[nH]4)nc3c2)CC1

>  <endpoint.value>
321

$$$$
>  <cpd.smiles>
COCCN1CCN(Cc2cnc3sc(-c4ccccc4NC(=O)c4cccc(-c5ccc(F)cc5F)n4)nc3c2)CC1

>  <endpoint.value>
394

$$$$
>  <cpd.smiles>
Cn1cc(-c2ccccc2)cc1C(=O)Nc1ccccc1-c1nc2cc(CN3CCOCC3)cnc2s1

>  <endpoint.value>
67

$$$$
>  <cpd.smiles>
O=C(Nc1ccccc1-c1nc2cc(CN3CCNCC3)cnc2s1)c1cccc(-c2nnn[nH]2)c1

>  <endpoint.value>
2790

$$$$
>  <cpd.smiles>
O=C(Nc1ccccc1-c1nc2cc(CN3CCOCC3)cnc2s1)c1ccc2ccccc2c1

>  <endpoint.value>
1060

$$$$
>  <cpd.smiles>
O=C(Nc1ccccc1-c1nc2cc(CN3CCCC3)cnc2s1)c1cc(-c2ccccc2)n[nH]1

>  <endpoint.value>
829

$$$$
>  <cpd.smiles>
O=C(Nc1ccccc1-c1nc2cc(CN3CC[C@H](F)C3)cnc2s1)c1ccc2ccccc2n1

>  <endpoint.value>
1440

$$$$
>  <cpd.smiles>
COCCN1CCN(Cc2cnc3sc(-c4ccccc4NC(=O)c4cccc(-c5ccccc5Cl)n4)nc3c2)CC1

>  <endpoint.value>
90

$$$$
>  <cpd.smiles>
COCCN1CCN(Cc2cnc3sc(-c4ccccc4NC(=O)c4cccc(-c5ccc(Cl)cc5)n4)nc3c2)CC1

>  <endpoint.value>
214

$$$$
>  <cpd.smiles>
O=C(Nc1ccccc1-c1nc2cc(CN3CCNCC3)cnc2s1)c1cccc(-c2ccccn2)c1

>  <endpoint.value>
340

$$$$
>  <cpd.smiles>
O=C(Nc1ccccc1-c1nc2cc(CN3CCOCC3)cnc2s1)c1cccc(-c2ccccc2F)c1

>  <endpoint.value>
395

$$$$
>  <cpd.smiles>
COCCN1CCN(Cc2cnc3sc(-c4ccccc4NC(=O)c4cc(C)nc(-c5ccccc5)n4)nc3c2)CC1

>  <endpoint.value>
106

$$$$

====

Recorded EC1.5 (concentration of test compound that results in 150% activation of SIRT1), one value per entry.
# measurement.target: SIRT1 (Homo sapiens, UniProt Q96EB6)
# Sequence (Q96EB6 1-747): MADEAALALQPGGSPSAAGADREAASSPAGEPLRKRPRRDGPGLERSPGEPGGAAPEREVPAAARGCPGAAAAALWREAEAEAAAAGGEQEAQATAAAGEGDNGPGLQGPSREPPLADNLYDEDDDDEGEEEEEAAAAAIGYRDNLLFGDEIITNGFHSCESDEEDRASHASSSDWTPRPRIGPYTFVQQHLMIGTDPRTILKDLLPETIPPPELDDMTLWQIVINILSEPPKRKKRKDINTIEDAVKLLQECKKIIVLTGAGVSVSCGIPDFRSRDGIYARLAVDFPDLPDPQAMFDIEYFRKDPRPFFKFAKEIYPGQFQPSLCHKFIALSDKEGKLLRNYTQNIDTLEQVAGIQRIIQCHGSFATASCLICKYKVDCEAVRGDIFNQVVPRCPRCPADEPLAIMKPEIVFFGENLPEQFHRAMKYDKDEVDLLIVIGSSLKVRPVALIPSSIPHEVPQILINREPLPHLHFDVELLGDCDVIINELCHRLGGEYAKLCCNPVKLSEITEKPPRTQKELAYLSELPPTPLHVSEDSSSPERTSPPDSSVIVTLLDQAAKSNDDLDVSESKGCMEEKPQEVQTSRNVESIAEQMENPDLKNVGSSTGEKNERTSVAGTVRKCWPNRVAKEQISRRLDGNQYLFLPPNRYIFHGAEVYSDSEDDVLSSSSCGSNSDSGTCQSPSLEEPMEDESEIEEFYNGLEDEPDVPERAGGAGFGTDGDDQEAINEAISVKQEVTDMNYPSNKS
# assay.name: mass spectrometry based SIRT1 deacetylation assay (activation)
# Assay type: biochemical
# condition.details: 0.5 μM peptide substrate, 120 μM βNAD+, 10 nM SIRT1, 25 min at 25° C.; NA = not active in the assay
measured.attribute: EC1.5 (concentration of test compound that results in 150% activation of SIRT1) (NM)

>  <compound>
COCCN1CCN(Cc2cnc3sc(-c4ccccc4NC(=O)c4cccc(-c5csc(C)n5)c4)nc3c2)CC1

>  <result.unit>
NM

>  <endpoint.value>
652

$$$$
>  <compound>
COCCN1CCN(Cc2cnc3sc(-c4ccccc4NC(=O)c4cncc(-c5ccccc5)c4)nc3c2)CC1

>  <result.unit>
NM

>  <endpoint.value>
554

$$$$
>  <compound>
COCCN1CCN(Cc2cnc3sc(-c4ccccc4NC(=O)c4ccn(-c5ccccc5)n4)nc3c2)CC1

>  <result.unit>
NM

>  <endpoint.value>
141

$$$$
>  <compound>
N[C@@H]1CCN(Cc2cnc3sc(-c4ccccc4NC(=O)c4ccc5ccccc5n4)nc3c2)C1 [Compound 119]

>  <result.unit>
NM

>  <endpoint.value>
390

$$$$
>  <compound>
CC(C)NCc1cnc2sc(-c3ccccc3NC(=O)c3cncc(-c4ccccc4)c3)nc2c1

>  <result.unit>
NM

>  <endpoint.value>
3590

$$$$
>  <compound>
N[C@@H]1CCN(Cc2cnc3sc(-c4ccccc4NC(=O)c4ccc5ccccc5n4)nc3c2)C1 [Compound 109]

>  <result.unit>
NM

>  <endpoint.value>
270

$$$$
>  <compound>
O=C(Nc1ccccc1-c1nc2cc(CN3CCNCC3)cnc2s1)c1cccc(-c2ccncc2)c1

>  <result.unit>
NM

>  <endpoint.value>
492

$$$$
>  <compound>
O=C(Nc1ccccc1-c1nc2cc(CN3CCCC3)cnc2s1)c1cccc(-c2ccccc2)n1

>  <result.unit>
NM

>  <endpoint.value>
144

$$$$
>  <compound>
O=C(Nc1ccccc1-c1nc2cc(CN3CCCC3)cnc2s1)c1ccc2ccccc2n1

>  <result.unit>
NM

>  <endpoint.value>
160

$$$$
>  <compound>
O=C(Nc1ccccc1-c1nc2cc(CN3CCOCC3)cnc2s1)c1ccc2cccnc2n1

>  <result.unit>
NM

>  <endpoint.value>
500

$$$$
>  <compound>
C[C@@H]1CN(Cc2cnc3sc(-c4ccccc4NC(=O)c4cccc(-c5cccnc5)c4)nc3c2)C[C@H](C)N1

>  <result.unit>
NM

>  <endpoint.value>
674

$$$$
>  <compound>
Cn1cc(-c2ccccc2)cc1C(=O)Nc1ccccc1-c1nc2cc(CN3CCCC3)cnc2s1

>  <result.unit>
NM

>  <endpoint.value>
591

$$$$
>  <compound>
O=C(Nc1ccccc1-c1nc2cc(CN3CCCC3)cnc2s1)c1cccc(-c2ccccn2)c1

>  <result.unit>
NM

>  <endpoint.value>
687

$$$$
>  <compound>
O=C(Nc1ccccc1-c1nc2cc(CN3CCOCC3)cnc2s1)c1cn2cccnc2n1

>  <result.unit>
NM

>  <endpoint.value>
2330

$$$$
>  <compound>
COCCN1CCN(Cc2cnc3sc(-c4ccccc4NC(=O)c4cc(-c5ccccc5)cn4C)nc3c2)CC1

>  <result.unit>
NM

>  <endpoint.value>
14

$$$$
>  <compound>
O=C(Nc1ccccc1-c1nc2cc(CN3CCOCC3)cnc2s1)c1cc(-c2ccccc2)n[nH]1

>  <result.unit>
NM

>  <endpoint.value>
1620

$$$$
